# assay protocol: Oral bioavailability in non-fasted mouse at 1 mg/kg administered as cassette dosing by LC/MS/MS analysis
# Type: ADME, organism-based
# experimental setup: in vivo
# key: entry, value: bioavailability
Report as a plain number; the unit % is understood.

molecule: Cn1nc(C(F)(F)F)cc1C(=O)N[C@@H]1CCN(C(=O)c2cc(Cl)c3nccnc3c2)C[C@@H]1c1ccccc1
quantity measured: bioavailability
measured result: 56

molecule: COc1cc(C(=O)N2CCC(NC(=O)c3ccccc3OC(F)(F)F)c3c2cnn3C(C)C)cnc1OC (racemic)
quantity measured: bioavailability
measured result: 25

molecule: COc1ccc(C(=O)N2CCC(NC(=O)c3ccccc3Cl)c3c2cnn3C)cc1OC (racemic)
quantity measured: bioavailability
measured result: 28

Next up:
State its bioavailability: COc1cc(C(=O)N2CC[C@H](NC(=O)c3ccccc3OC(F)(F)F)c3c2cnn3C(C)C)cnc1OC
53

====

# key: entry, value: clearance
# assay protocol: Total clearance in non-fasted mouse at 0.1 mg/kg, iv administered as cassette dosing by LC/MS/MS analysis
# Assay type: ADME, organism-based
# experimental setup: in vivo
Report as a plain number; the unit mL/min/kg is understood.

input smiles: Cn1nc(C(F)(F)F)cc1C(=O)N[C@@H]1CCN(C(=O)c2cc(Cl)c3nccnc3c2)C[C@@H]1c1ccccc1
clearance / mL/min/kg: 8.45

Next up:
State its clearance: COc1cc(C(=O)N2CC[C@H](NC(=O)c3ccccc3OC(F)(F)F)c3c2cnn3C(C)C)cnc1OC
15.9

====

# System: HCC4006
# assay protocol: Growth inhibition of human HCC4006 cells assessed as inflection point after 5 days by cell-titer-glo luminescent cell viability assay
# Format: functional
quantity measured: log10 IP (log10 of the value in nM)
Units before log transform: nM; reported quantity: IP; transform: log10.

State its log10 IP: COc1ccc(C(=O)N2CCC(Nc3ccc(Cl)cc3)c3ccc(Cl)cc32)cc1OC (stereo not drawn)
4.08

State its log10 IP: COc1ccc(C(=O)N2CCC(NC(=O)c3ccccc3Cl)c3ccc(Cl)cc32)cc1OC (stereo not drawn)
2.70

State its log10 IP: Cn1nc(C(F)(F)F)cc1C(=O)N[C@@H]1CCN(C(=O)c2cc(Cl)c3nccnc3c2)C[C@@H]1c1ccccc1
1.04

State its log10 IP: COc1cc(C(=O)N2CCC(NC(=O)c3ccccc3OC(F)(F)F)c3c2cnn3C(C)C)cnc1OC (racemic)
1.36

State its log10 IP: COc1ccc(C(=O)N2CCC(NC(=O)c3ccccc3Cl)C(c3ccccc3)C2)cc1OC (mixture of isomers)
1.61

State its log10 IP: COc1cc(C(=O)N2CC[C@H](NC(=O)c3ccccc3OC(F)(F)F)c3c2cnn3C(C)C)cnc1OC
0.59

State its log10 IP: COc1ccc(C(=O)N2CC[C@@H](NC(=O)c3ccccc3Cl)[C@@H](c3ccccc3)C2)cc1OC
1.15

====

# assay protocol: Clearance in mouse liver microsomes in presence of NADPH
# Type: ADME, microsome
# experimental setup: read-out: CLH
Would you please tag the item 1 (yes) when its microsomal CLint is 60 µL/min/mg or above, and 0 (no) when it is below?

Use the examples below as a reference point.
compound: COc1ccc(C(=O)N2CCC(NC(=O)c3ccccc3Cl)c3ccc(Cl)cc32)cc1OC (stereo not given)
category label: 1 (yes)
--
compound: COc1ccc(C(=O)N2CC[C@@H](NC(=O)c3ccccc3Cl)[C@@H](c3ccccc3)C2)cc1OC
category label: 1 (yes)
--
compound: COc1cc(C(=O)N2CC[C@H](NC(=O)c3ccccc3OC(F)(F)F)c3c2cnn3C(C)C)cnc1OC
category label: 0 (no)

Consider the record given below.
Textbook exercise: given the entry COc1ccc(C(=O)N2CCC(NC(=O)c3ccccc3Cl)c3c2cnn3C)cc1OC (racemic) , state whether its microsomal CLint is greater than or equal to 60 µL/min/mg.
0 (no)

src = ChEMBL document CHEMBL4219232
